// reported protein stability index for each item listed
Experiment: protein stability index of a GFP-peptide fusion (yeast GPS) (PSI 1-4); higher = more stable; sorted into four equal gates, so the index is relative within each strain
Conditions: san1∆
Keep it simple and answer with nothing but the number.

As a guide, the following entries are already answered.
KGPAIDELSSKELVECH [NNF1]; 2.78
VSVEGVNVEKFNVEYFA [RPL6A]; 3.14
KNMPVIYNNIVSNIEGI [RGR1]; 2.5
EKIKKINYHQYISKAQN [SSN2]; 2.07
KTAMAELALLNHWRQNK [BRR2]; 1.26
SYDRTLLIADSRRPEPK [RPS16A]; 2.03
AYVVNDTAPKPNIVEID [DLS1]; 2.97
SSTDEESWFKALAGSEI [FAS1]; 3.11
YDKKKRVVVPQALRVLR [RPL16B]; 2.17
PAQKDSSVVSEPKKPSF [YOR098C/NUP1]; 2.3

Consider the additional sequence presented here.
Q: Any idea what its protein stability index is? The sequence is RADTDLAMNDDDFLSKK [SNF2]
Ans: 3.22
